- System: RPMI-8226
- Method description: NCI tumour cell line growth inhibition, 48 h
Activity calls are given as the source filed them. Cut-off read from the data, not from the text of the source: active = GI50 up to about 1.1 µM and inactive = higher.
Labels: class 1 for active, class 0 for inactive

COc1ccc2[nH]c3nnc(N)c-3nc2c1	class 0
O=C1Cc2c([nH]c3ccc(Br)cc23)-c2ccccc2N1	class 0
O=C(O)c1ccc(Nc2cnc3cc(C(F)(F)F)ccc3n2)cc1	class 0
O=[N+]([O-])C(C(Cl)=C(Cl)Cl)=C(N1CCOCC1)N1CCOCC1	class 0
CSc1nc(NC2OCC(OC(C)=O)C(OC(C)=O)C2OC(C)=O)c(/N=C(\C)C(C)=O)c(=O)n1C (stereo unspecified)	class 0
CN(C)CCSCCO	class 0
CCOC(=O)Cc1nc2ccc3c(c2nc1O)C(=O)c1ccccc1C3=O	class 0
CCOC(=O)CCC(NC(=O)c1ccc(Nc2nc3ccc(C(F)(F)F)cc3nc2-c2ccccc2)cc1)C(=O)OCC (stereo unspecified)	class 0
COc1cccc([C@@]2(O)c3c(ccc(O)c3OC)[C@H]2OC)c1OC	class 0
CCOc1ccc(/C=C\c2cc(OC)c(OC)c(OC)c2)cc1	class 1
COC1OC(C(=O)O)C2OC(C)(C)OC12 (stereo unspecified)	class 0

* * *

- Tested on: PC-3
- Method description: NCI tumour cell line growth inhibition, 48 h
The source made the active and inactive calls. Rule as the data show it: active = GI50 up to about 1.1 µM and inactive = higher.
Measured attribute: GI50

Cn1c2ncccc2n2c(=O)cc(O)cc12	56.4 µM (inactive)
[O-]c1c[n+](-c2ccccc2)no1	> 100 µM (inactive)
O=C(O)CSC(CC(=O)c1ccc(Cl)cc1)c1ccc(Cl)cc1 (stereo not given)	37.4 µM (inactive)
CC(=O)OCC12C(OC(C)=O)C[C@@H](C)C3(CC(c4ccoc4)OC3=O)C1CCC(O)C21CO1 (stereo not given in full)	> 100 µM (inactive)
CC1=NN(c2cccc(Cl)c2)C(=N/c2nc3ccccc3s2)/C1=C\c1ccccc1O	20.5 µM (inactive)
CC(C)CCCC(C)[C@H]1CC[C@H]2n3c(nnc3-c3ccccc3)CCC[C@]12C (stereo not given in full)	9.33 µM (inactive)
O=C1Cc2c([nH]c3ccc(Br)cc23)-c2ccccc2N1 [KENPAULLONE]	> 100 µM (inactive)
Cc1cc(N(CCC#N)CCC#N)ccc1C(=N/NC(=O)c1cc(Cl)ccc1O)/N=N/c1cccc(Cl)c1	10.1 µM (inactive)
O=C1c2ccccc2C(=O)c2c(OCCOCCO)cccc21	38.1 µM (inactive)
CCCCCC/C=C\CCCCCCCCCc1cccc(O)c1C(=O)O [GINKGOLIC ACID 17:1]	51.9 µM (inactive)

* * *

- System: OVCAR-3
- Method description: NCI tumour cell line growth inhibition, 48 h
Active and inactive are the calls of the source. Cut-off read from the data, not from the text of the source: active = GI50 up to about 1.1 µM and inactive = higher.
Labels: active, inactive

COC1CC(OC2C(C)OC(OC3C(C)OC(OC4C(C)OC(O[C@H]5CC[C@@]6(C)C(=CC[C@]7(O)[C@@H]6C[C@@H](OC(C)=O)[C@@]6(C)[C@]7(O)CC[C@@]6(O)C(C)=O)C5)CC4OC)CC3OC)CC2OC)OC(C)C1O (stereo partly specified)	inactive
N#CSC#CCCC#CSC#N	inactive
COc1ccc(OC)c(CC2CCc3nc(N)nc(N)c3C2)c1 (stereo unspecified)	inactive
C=CCOC1(CC=C)C(=O)OC2C(O)COC21O (stereo unspecified)	inactive
Cc1cc(C)c(S(=O)(=O)N[C@@H](/C=C(\Br)CO)C(C)C)c(C)c1	inactive
CN1N=C(Nc2ccccc2)Sc2c1cnn(-c1ccccc1)c2=O	inactive
Cc1ccc2[nH]c3c(c2c1)C1CCC(C(C)(C)C)CC1C1C(=O)N(c2ccc4c(c2)OCO4)C(=O)C31 (stereo unspecified)	inactive
CC(=O)Oc1cc(C(F)(F)F)ccc1C(=O)OC1(C)OC(=O)c2ccc(C(F)(F)F)cc2O1 (stereo unspecified)	inactive
Cc1ccccc1C(C#N)/C(=N/NC(=O)C(=O)NN)C(=O)Nc1cccc(C(F)(F)F)c1 (stereo unspecified)	inactive
CO[C@@]12C[C@@H](C)[C@]34O[C@H]3C[C@]3(C)O[C@]43CC1=C(C)C(=O)O2	inactive
COc1ccc(OC)c2c1C(=O)C(Cl)=C(N1CCN(CCOCCO)CC1)C2=O	inactive
C1CNOCCCONCCCNOCCCONC1	inactive
COc1ccc2[nH]c3nnc(N)c-3nc2c1	inactive
CC1OC(NCCNCCNC2OC(C)C(O)C(O)C2O)C(O)C(O)C1O (stereo unspecified)	inactive
CCOC(=O)Cc1nc2ccc3c(c2nc1O)C(=O)c1ccccc1C3=O	inactive
COc1cccc(C2c3cc4c(cc3OC(Nc3ccccc3)C2C)OCO4)c1O (stereo unspecified)	inactive
C=C(Nc1ccc([N+](=O)[O-])cc1[N+](=O)[O-])c1c/c(=N\NC(N)=S)c2ccccc2o1	inactive
CC(C)CCCC(C)[C@H]1CC[C@H]2n3c(nnc3-c3ccccc3)CCC[C@]12C (stereo partly specified)	inactive
Cc1nn(C(=O)c2ccncc2)c2c1C(c1ccc(Cl)cc1)SC(=N)N2 (stereo unspecified)	inactive
NC(=S)NS(=O)(=O)c1ccc(Cl)cc1Cl	inactive
Cc1ccc2c(c1)C(C(=O)N[C@@H]1C(=O)N3[C@@H]1SC(C)(C)[C@@H]3C(=O)O)OCCC2 (stereo partly specified)	inactive
Cc1ccc(NC(=O)CC(=O)n2nc(-c3ccccc3)c(/N=N\c3ccccc3[N+](=O)[O-])c2-c2ccccc2)cc1	inactive
COc1ccc(S(=O)(=O)Nc2ccc(-c3csc(N4C(=O)/C(=C/c5ccccc5[N+](=O)[O-])N=C4c4ccccc4)n3)cc2)cc1Cl	inactive
O=[N+]([O-])C(=C(Cl)Cl)C(Cl)=C(Cl)Cl	active
COC[C@@H](/N=C/N1CCc2cc(OC)c(OC)cc2C1)C(C)(C)C	inactive
O=C(CC1SC(Nc2ccccc2Cl)=NC1=O)Nc1ccc(Cl)cc1Cl (stereo unspecified)	inactive
CC1=C(C)C(=O)OC(C(C)(O)C2(O)CC3OC34C3CC(O)C56OC5C=CC(=O)C6(C)C3CCC42C)C1 (stereo unspecified)	inactive
COC(=O)CCC(=O)CC1CC(=O)C2CCCN12 (stereo unspecified)	inactive
Cc1ccc(C(=O)Nc2ccc(S(=O)(=O)O)c3cc(S(=O)(=O)O)cc(S(=O)(=O)O)c23)cc1NC(=O)c1cccc(NC(=O)Nc2cccc(C(=O)Nc3cc(C(=O)Nc4ccc(S(=O)(=O)O)c5cc(S(=O)(=O)O)cc(S(=O)(=O)O)c45)ccc3C)c2)c1 [SURAMIN]	inactive
O=C1Cc2c([nH]c3ccc(Br)cc23)-c2ccccc2N1 [KENPAULLONE]	inactive
CC[C@@H]1/C=C/C=C/C[C@H](C)[C@@H](O)[C@@H](C)C(=O)[C@H](C)[C@@H](O)[C@H](C)C(=O)[C@H](C)[C@@H](O)[C@H](C)/C=C/C(=O)O[C@H]2[C@@H](C)[C@@H](CC1)O[C@@]1(CC[C@@H](C)[C@@H](CC(C)O)O1)[C@@H]2C (stereo partly specified)	inactive
CCOC(=O)C1(N)CC1	inactive
CN(C)c1ccc(/C=C(\NC(=O)c2ccccc2)C(=O)NC(CC(=O)O)C(=O)O)cc1 (stereo unspecified)	inactive
Cc1ccccc1-n1c(C)nc(-c2ccccc2)cc1=O	inactive
CN(C)CCNS(=O)(=O)N(C)C	inactive
CCC12CCCN(Cc3ccccc3)C1c1c(n(C)c3ccccc13)C(C(=O)OC)C2 (stereo unspecified)	inactive
